- particulars: human gut metagenome, 24 h, 2 µM; further: call rule not given here
measurement-kind: Bacterial Biotransformation

Some solved cases for reference:
                                   compound           recorded_result
0  CN(C(=O)CN(CCO)CC(=O)N(C)C(C)(C)Cc1ccccc1)C(C)(C)Cc1ccccc1 [OXETHAZAINE]  Compound NOT metabolized
1  COc1ccccc1OCC(O)COC(N)=O (centres undefined) [METHOCARBAMOL]  Compound NOT metabolized
2  CS(=O)(=O)O.OC(CCN1CCCCC1)(c1ccccc1)c1ccccc1 [PRIDINOL METHANESULFONATE]  Compound NOT metabolized
3  CN(C)CC(c1ccc(O)cc1)C1(O)CCCCC1.O=C(O)CCC(=O)O (centres undefined) [DESVENLAFAXINE SUCCINATE]  Compound NOT metabolized
4  CN1CCc2cccc3c2[C@H]1Cc1ccc(O)c(O)c1-3 [APOMORPHINE]  Compound NOT metabolized
5  Cc1nc2n(c(=O)c1CCN1CCC(c3noc4cc(F)ccc34)CC1)CCCC2O (centres undefined) [PALIPERIDONE]  Compound NOT metabolized

# input compound: COC(=O)C1=C(C)NC(C)=C(C(=O)OC(C)C)C1c1cccc2nonc12 (centres undefined) [ISRADIPINE] ; wanted: its Bacterial Biotransformation
Compound NOT metabolized

Give the measured Bacterial Biotransformation of C#C[C@]1(O)CC[C@H]2[C@@H]3CCC4=Cc5oncc5C[C@]4(C)[C@H]3CC[C@@]21C [DANAZOL] .
Compound metabolized

I am curious: what Bacterial Biotransformation value has been reported for CCCCC1=NC2(CCCC2)C(=O)N1Cc1ccc(-c2ccccc2-c2nnn[nH]2)cc1 [IRBESARTAN] ?
Compound NOT metabolized

May I ask what Bacterial Biotransformation has been recorded for CNC(=C[N+](=O)[O-])NCCSCc1ccc(CN(C)C)o1 [RANITIDINE] ?
Compound metabolized

For the compound Cc1nc(-c2ccc(OCC(C)C)c(C#N)c2)sc1C(=O)O [FEBUXOSTAT] , what Bacterial Biotransformation is on record?
Compound NOT metabolized

Item under review: CN1CCC(=C2c3ccccc3CCc3cccnc32)CC1.O=C(O)/C=C\C(=O)O.O=C(O)/C=C\C(=O)O [AZATADINE MALEATE] . Reported Bacterial Biotransformation?
Compound NOT metabolized

# get_value(readout='Bacterial Biotransformation', item= CCCc1nc2c(C)cc(-c3nc4ccccc4n3C)cc2n1Cc1ccc(-c2ccccc2C(=O)O)cc1 )
Compound metabolized

Give the measured Bacterial Biotransformation of O=C(CCCN1CCC(O)(c2ccc(Cl)cc2)CC1)c1ccc(F)cc1 [HALOPERIDOL] .
Compound NOT metabolized

---

- particulars: human gut metagenome, 24 h, 2 µM
measurement-kind: Bacterial Biotransformation

Use these answered entries as a reference point.
>>> df
                                   molecule           recorded_result
0                     NC12CC3CC(CC(C3)C1)C2  Compound NOT metabolized
1               c1ccc([C@H]2CN3CCSC3=N2)cc1      Compound metabolized
2      Clc1ccc(Cn2c(CN3CCCC3)nc3ccccc32)cc1      Compound metabolized
3  Cc1nc2n(c(=O)c1CCN1CCC(c3noc4cc(F)ccc34)CC1)CCCC2      Compound metabolized
4                 COc1c2occc2cc2ccc(=O)oc12      Compound metabolized
5  CC(=O)OCC(=O)[C@@]1(O)[C@@H](C)C[C@H]2[C@@H]3CCC4=CC(=O)C=C[C@]4(C)[C@@]3(F)[C@@H](O)C[C@@]21C [BETAMETHASONE ACETATE]      Compound metabolized
6    OCCOCCN1CCN(C2=Nc3ccccc3Sc3ccccc32)CC1  Compound NOT metabolized
7  COc1ccc2c3c1O[C@H]1C[C@@H](O)C=C[C@@]31CCN(C)C2  Compound NOT metabolized
8       Cc1cc2c(cc1S(N)(=O)=O)S(=O)(=O)CCC2  Compound NOT metabolized
9  COC1=CC(=O)C[C@@H](C)[C@]12Oc1c(Cl)c(OC)cc(OC)c1C2=O      Compound metabolized

Bacterial Biotransformation lookup needed for Cc1ccccc1N1C(=O)c2cc(S(N)(=O)=O)c(Cl)cc2NC1C (centres undefined) , thanks.
Compound NOT metabolized

Item under review: O=C1NCC2(CCN(CCc3ccccc3)CC2)O1 [FENSPIRIDE] . Reported Bacterial Biotransformation?
Compound NOT metabolized

Given CC(Oc1c(Cl)cccc1Cl)C1=NCCN1 (centres undefined) , state its recorded Bacterial Biotransformation.
Compound NOT metabolized

So what's the measured Bacterial Biotransformation for this one? CC(=O)OCC(=O)[C@@]12N=C(C)O[C@@H]1C[C@H]1[C@@H]3CCC4=CC(=O)C=C[C@]4(C)[C@H]3[C@@H](O)C[C@@]12C
Compound metabolized

---

- method-summary: The drug is tested on WLS-310 corresponding to human gut metagenome with ENA study accession number: PRJEB37062 and ENA sample accession number: ERS12561785 for biotransformation under anaerobic condition. The drug concentrations were measured over 9 timepoints collected between 0 and 24 hours of incubation by liquid-chromatography-coupled mass spectrometry (LC–MS)
- particulars: 2 µM
measurement-kind: Bacterial Biotransformation

Consider the following illustrative entries.
>>> print(df.to_string())
                                   compound       recorded_result
0  CCN(CC)CCNC(C(=O)OCCC(C)C)c1ccccc1.Cl.Cl (configuration not stated)  Compound metabolized
1  COc1cc2nc(N(C)CCCNC(=O)C3CCCO3)nc(N)c2cc1OC (configuration not stated)  Compound metabolized
2  CC(C)N(CCC(C(N)=O)(c1ccccc1)c1ccccn1)C(C)C.O=P(O)(O)O (configuration not stated) [DISOPYRAMIDE PHOSPHATE]  Compound metabolized
3  Cc1ccc(S(=O)(=O)NC(=O)NN2CCCCCC2)cc1 [TOLAZAMIDE]  Compound metabolized

Consider the compound c1ccc([C@H]2CN3CCSC3=N2)cc1 and give its measured Bacterial Biotransformation.
Compound metabolized

GET /values?readout=Bacterial Biotransformation&item= CC(C)(C)NC[C@H](O)COc1ccccc1C1CCCC1.CC(C)(C)NC[C@H](O)COc1ccccc1C1CCCC1.O=S(=O)(O)O [PENBUTOLOL SULFATE]
Compound metabolized

---

- particulars: human gut metagenome, 24 h, 2 µM
measurement-kind: Bacterial Biotransformation

In [3]: df
Out[3]:
                                   compound       recorded_result
0  CCCCCCOC(=O)/N=C(/N)c1ccc(NCc2nc3cc(C(=O)N(CCC(=O)OCC)c4ccccn4)ccc3n2C)cc1.CS(=O)(=O)O [DABIGATRAN ETEXILATE MESYLATE]  Compound metabolized
1  O=c1[nH]c2ccccc2n1C1CCN(CCCC(c2ccc(F)cc2)c2ccc(F)cc2)CC1 [PIMOZIDE]  Compound metabolized
2  Fc1ccc([C@@H]2CCNC[C@H]2COc2ccc3c(c2)OCO3)cc1  Compound metabolized
3  CN(C(=O)CN(CCO)CC(=O)N(C)C(C)(C)Cc1ccccc1)C(C)(C)Cc1ccccc1  Compound metabolized
4  CC(Oc1c(Cl)cccc1Cl)C1=NCCN1 (centres undefined)  Compound metabolized
5  C#C[C@]1(O)CC[C@H]2[C@@H]3CCC4=Cc5oncc5C[C@]4(C)[C@H]3CC[C@@]21C  Compound metabolized

Quick check: Bacterial Biotransformation of COc1ccc2[nH]c([S+]([O-])Cc3ncc(C)c(OC)c3C)nc2c1 (centres undefined) ?
Compound metabolized

Query: Bacterial Biotransformation; subject: CCOC(=O)[C@H](CCc1ccccc1)N[C@H]1CCc2ccccc2N(CC(=O)O)C1=O
Compound metabolized

---

- method-summary: The drug is tested on WLS-052 corresponding to human gut metagenome with ENA study accession number: PRJEB37062 and ENA sample accession number: ERS12561747 for biotransformation under anaerobic condition. The drug concentrations were measured over 9 timepoints collected between 0 and 24 hours of incubation by liquid-chromatography-coupled mass spectrometry (LC–MS)
- particulars: 2 µM
measurement-kind: Bacterial Biotransformation

Recorded results for 5 compounds are shown here.
>>> df
                                   compound             measurement_kind           recorded_result
0           Cc1ccnc2c1NC(=O)c1cccnc1N2C1CC1  Bacterial Biotransformation  Compound NOT metabolized
1             CCc1nc(N)nc(N)c1-c1ccc(Cl)cc1  Bacterial Biotransformation  Compound NOT metabolized
2      Clc1ccc(Cn2c(CN3CCCC3)nc3ccccc32)cc1  Bacterial Biotransformation      Compound metabolized
3  CNS(=O)(=O)Cc1ccc2[nH]cc(CCN(C)C)c2c1.O=C(O)CCC(=O)O [SUMATRIPTAN SUCCINATE]  Bacterial Biotransformation  Compound NOT metabolized
4  CC(C)(C)NC[C@H](O)COc1ccccc1C1CCCC1.CC(C)(C)NC[C@H](O)COc1ccccc1C1CCCC1.O=S(=O)(O)O [PENBUTOLOL SULFATE]  Bacterial Biotransformation      Compound metabolized

Let us examine a further case.
// query Bacterial Biotransformation value for entry CCOc1ccc(NC(C)=O)cc1
Compound NOT metabolized
